TARGET OR TEST SYSTEM: T1, BS69 CC-MYND domain (amino acids 480-602) (human, UniProt Q15326-1 480-602)
T1 construct: BS69 (ZMYND11), human, C-terminal region with the coiled-coil and MYND domains, amino acids 480-602; canonical isoform 1 of 602 amino acids; Dimer by SEC-MALS; Amplified from pCI-BS69 and cloned into pET49b+; also called ZMYND11; source: E. coli Rosetta 2 (DE3) pLysS, purified (cobalt resin, 3C protease cleavage, Superdex 75); not shown: GST, N-terminal, cleaved; His6, N-terminal, cleaved
T1 sequence (looked up): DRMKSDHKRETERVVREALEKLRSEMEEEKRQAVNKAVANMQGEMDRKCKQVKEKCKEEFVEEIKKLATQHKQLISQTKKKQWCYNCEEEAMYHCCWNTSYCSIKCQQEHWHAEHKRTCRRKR
PROTOCOL SUMMARY: ITC; EBNA2 polypeptide titrated into BS69CC-MYND (0.1 mM) in the cell, 19 x 2.0 μl injections, 25°C, 20 mM Tris-HCl, 100 mM NaCl, 1 mM TCEP, pH 7.5; one set of sites model; n calculated for monomeric proteins
EXPERIMENTAL CONDITIONS: both partners purified
ASSAY ENDPOINT: Kd (nM)
Just the number in nM, nothing appended.

Please report the recorded Kd for type 2 EBNA2 polypeptide T2 EBNA2_(348-412) (domain or fragment, pET47b+ construct; also called type 2 EBNA2_(348-412); source: E. coli Rosetta 2 (DE3) pLysS, purified (cobalt resin, 3C protease cleavage, Superdex 75); not shown: His6, N-terminal, cleaved) SMPQLSPVVSLHQGQGPENSPTPGPSTAGPVCRVTPSATPDISPIHEPESSDSEEPPFLFPSDWY .
1210
